Every entry's value here was drawn from the supplement of paper PMC11061612.

Items are presented alongside their recorded combination Emax.
- System: NUGC-4 (Gastric Carcinoma)
- protocol.description: combination Emax (second highest fraction inhibited in the dose matrix, 72 h); higher = more inhibition; extreme values may be limits of the assay
Enter the number alone.

The examples below pair each entry with its known result.
compound: Cc1cc2ncnn2cc1Nc1ncc2c(n1)n(C1CCOCC1)c(=O)n2C [AZD7648] + CN(C)CCCOc1ccc(-c2ccc3ncc4c(c3c2)n(C2CCOCC2)c(=O)n4C)cn1 [AZD0156] (first compound max 10 µM, 7x7, partner max 1 µM)
numeric.readout: 0.216

compound: CN(C)CCCOc1ccc(-c2ccc3ncc4c(c3c2)n(C2CCOCC2)c(=O)n4C)cn1 [AZD0156] + C[C@@H]1COCCN1C2=NC(=NC(=C2)C3(CC3)[S@](=N)(=O)C)C4=C5C=CNC5=NC=C4 [AZD6738] (first compound max 1 µM, 7x7, partner max 10 µM)
numeric.readout: 0.639

compound: Cc1cc2ncnn2cc1Nc1ncc2c(n1)n(C1CCOCC1)c(=O)n2C [AZD7648] + CCN(CCO)CCCOc1ccc2c(Nc3cc(CC(=O)Nc4cccc(F)c4)[nH]n3)ncnc2c1 [AZD2811] (first compound max 10 µM, 7x7, partner max 1 µM)
numeric.readout: 0.281

compound: Cc1c2c(nn1C)CSCc1cc(n(C)n1)CSc1cc(c3ccccc3c1)OCCCc1c(C(=O)O)n(C)c3c-2c(Cl)ccc13 [AZD5991] + C1CN(CCC1(C(=O)N[C@@H](CCO)C2=CC=C(C=C2)Cl)N)C3=NC=NC4=C3C=CN4 [Capivasertib] (first compound max 1 µM, 7x7, partner max 3 µM)
numeric.readout: 0.215

Field: next compound
Retrieve combination Emax on NUGC-4 (Gastric Carcinoma); query COc1cccc(OCCCN)c1-c1cc(Nc2cnc(C#N)cn2)n[nH]1 [Prexasertib] + CCc1c2c(nc3ccc(O)cc13)-c1cc3c(c(=O)n1C2)COC(=O)[C@]3(O)CC [SN-38] (first compound max 1 µM, 7x7, partner max 0.3 µM)
0.484

====

- System: LCLC-97TM1 (Non-Small Cell Lung Carcinoma);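 also: after 72 h of two-drug dosing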
- protocol.description: Bliss excess, mean over the matrix (fraction); higher = more synergy
readout: Bliss excess
Enter the number alone.

compound: CN(CCO)CC[C@H](CSc1ccccc1)Nc1ccc(S(=O)(=O)NC(=O)c2ccc(N3CCC([C@@H](O)c4ccccc4-c4ccc(Cl)cc4)CC3)cc2)cc1S(=O)(=O)C(F)(F)F [AZD4320] + C[C@@H]1COCCN1C2=NC(=NC(=C2)C3(CC3)[S@](=N)(=O)C)C4=C5C=CNC5=NC=C4 [AZD6738] (first compound max 1 µM, 7x7, partner max 10 µM)
Bliss excess: -0.0433

Input C=CCn1c(=O)c2cnc(Nc3ccc(N4CCN(C)CC4)cc3)nc2n1-c1cccc(C(C)(C)O)n1 [AZD1775] + O=C(c1cc(Cc2n[nH]c(=O)c3ccccc23)ccc1F)N1CCN(C(=O)C2CC2)CC1 [Olaparib] (first compound max 1 µM, partner max 10 µM) , output reported Bliss excess.
-0.0833

Input Cc1c2c(nn1C)CSCc1cc(n(C)n1)CSc1cc(c3ccccc3c1)OCCCc1c(C(=O)O)n(C)c3c-2c(Cl)ccc13 [AZD5991] + C=CCn1c(=O)c2cnc(Nc3ccc(N4CCN(C)CC4)cc3)nc2n1-c1cccc(C(C)(C)O)n1 [AZD1775] (first compound max 1 µM, partner max 1 µM) , output reported Bliss excess.
-0.0141
